System: K562 leukemia cell line
test-summary: MTT antiproliferative assay
Assay type: cell-based, human
settings: Homo sapiens, K562, 72 h, MTT, 72 h, mean ± SD of three experiments; read-out: IC50 K562
Each item that follows carries a reported log10 of IC50.
recorded-endpoint: log10 of IC50 (log10 of the value in µM)

molecule | log10 of IC50
C=C1C(=O)[C@@]23C(=O)O[C@H]4CCC(C)(C)[C@H]5[C@H](O)OC[C@@]45[C@@H]2CC[C@@H]1[C@H]3OC(=O)c1ccccc1C(=O)OCCCCOc1no[n+]([O-])c1S(=O)(=O)c1ccccc1 [Compound 9i] | 0.10
C=C1C(=O)[C@@]23C(=O)O[C@H]4CCC(C)(C)[C@H]5[C@H](O)OC[C@@]45[C@@H]2CC[C@@H]1[C@H]3OC(=O)c1ccccc1C(=O)OCCCOc1no[n+]([O-])c1S(=O)(=O)c1ccccc1 [Compound 9f] | 0.23
C=C1C(=O)[C@@]23C(=O)O[C@H]4CCC(C)(C)[C@H]5[C@H](O)OC[C@@]45[C@@H]2CC[C@@H]1[C@H]3OC(=O)CCCC(=O)OCCOc1no[n+]([O-])c1S(=O)(=O)c1ccccc1 [Compound 9b] | 0.36
C=C1C(=O)[C@]23[C@H](O)[C@H]1CC[C@H]2[C@@]12CO[C@]3(O)[C@@H](O)[C@@H]1C(C)(C)CC[C@@H]2O [Compound 7, oridonin, reference compound] | 0.68
C=C1C(=O)[C@@]23C(=O)O[C@H]4CCC(C)(C)[C@H]5[C@H](O)OC[C@@]45[C@@H]2CC[C@@H]1[C@H]3OC(=O)c1ccccc1C(=O)OCCOc1no[n+]([O-])c1S(=O)(=O)c1ccccc1 [Compound 9c] | 0.29
CC(=O)O[C@H]1C(=O)[C@@]2(C)[C@H]([C@H](OC(=O)c3ccccc3)[C@]3(O)C[C@H](OC(=O)[C@H](O)[C@@H](NC(=O)c4ccccc4)c4ccccc4)C(C)=C1C3(C)C)[C@]1(OC(C)=O)CO[C@@H]1C[C@@H]2O [Taxol, reference compound] | -0.39
C=C1C(=O)[C@@]23C(=O)O[C@H]4CCC(C)(C)[C@H]5[C@H](O)OC[C@@]45[C@@H]2CC[C@@H]1[C@H]3OC(=O)CCC(=O)OCCCOc1no[n+]([O-])c1S(=O)(=O)c1ccccc1 [Compound 9d] | 0.33
C=C1C(=O)[C@@]23C(=O)O[C@H]4CCC(C)(C)[C@H]5[C@H](O)OC[C@@]45[C@@H]2CC[C@@H]1[C@H]3OC(=O)CCC(=O)OCCCCOc1no[n+]([O-])c1S(=O)(=O)c1ccccc1 [Compound 9g] | 0.35
C=C1C(=O)[C@@]23C(=O)O[C@H]4CCC(C)(C)[C@H]5[C@H](O)OC[C@@]45[C@@H]2CC[C@@H]1[C@H]3OC(=O)CCCC(=O)OCCCOc1no[n+]([O-])c1S(=O)(=O)c1ccccc1 [Compound 9e] | 0.28
C=C1C(=O)[C@@]23C(=O)O[C@H]4CCC(C)(C)[C@H]5[C@H](O)OC[C@@]45[C@@H]2CC[C@@H]1[C@H]3OC(=O)CCCC(=O)OCCCCOc1no[n+]([O-])c1S(=O)(=O)c1ccccc1 [Compound 9h] | 0.32
C=C1C(=O)[C@@]23C(=O)O[C@H]4CCC(C)(C)[C@H]5[C@H](O)OC[C@@]45[C@@H]2CC[C@@H]1[C@H]3OC(=O)CCC(=O)OCCOc1no[n+]([O-])c1S(=O)(=O)c1ccccc1 [Compound 9a] | 0.39
